Attribute: TGI
# Tested on: A549 NSCLC
# Assay: NCI tumour cell line growth inhibition, 48 h
Endpoint label: TGI (µM)

>>> reported("O=c1ccs[nH]1")
41.4
>>> reported("CCN(Cc1ccccc1)c1ccc(CO)c(Cl)c1")
25.4

====

# System: MCF7 breast
# Assay: NCI tumour cell line growth inhibition, 48 h
*1 amine or outer side, *2 acyl side, *3 side chain or, on linkers, in order; H or OH if unused. Where a SMILES comes first, the peptide text is derived from it. Bridges are numbered along the chain shown (N, C = ends). Roman numbers before positions name the chains, in order. [ ]: non-standard residue; d: D form. Actinocin(9to1) = Cc1c2oc3c(C)ccc(C(=O)[*:1])c3nc-2c(C(=O)[*:2])c(N)c1=O; NMeT = CN[CH](C(=O)O)[CH](C)O; Sar = CNCC(=O)O
Endpoint label: TGI

>>> reported("Cc1c2oc3c(C)ccc(C(=O)NC4C(=O)NC(C(C)C)C(=O)N5CCCC5C(=O)N(C)CC(=O)N(C)C(C(C)O)C(=O)OC4C)c3nc-2c(C(=O)NC2C(=O)NC(C(C)C)C(=O)N3CCCC3C(=O)N(C)CC(=O)N(C)C(C(C)O)C(=O)OC2C)c(N)c1=O (stereo not drawn) (I: TVP[Sar][NMeT] / II: TVP[Sar][NMeT]; ester I:1-I:C, II:1-II:C; linker I:N-II:N via Actinocin(9to1); configuration not given here)")
"> 1 µM"
>>> reported("Oc1cc2c3c(c1)CCCN3CCC2")
"> 10 µM"
>>> reported("Cc1c(CCN2CCOCC2)c(N2CCOCC2)n2c(nc3ccccc32)c1C#N")
"> 10 µM"

src = PubChem BioAssay (NCI)
